The origin of these recorded values is the supplement of paper PMC7394473.

test system: U2OS; experiment: normalized growth rate inhibition value (GR) relative to untreated cells (GR value (dimensionless, 1 = untreated growth)); higher = less growth inhibition; settings: 0.316912 µM; 72 h
# normalized growth rate inhibition value values compiled below
Answer with a bare number; do not write a unit.

Worked examples, 3 molecules total:
molecule="COc1cc([C@@H]2c3cc4c(cc3[C@@H](O[C@@H]3O[C@@H]5CO[C@@H](C)O[C@H]5[C@H](O)[C@H]3O)[C@H]3COC(=O)[C@H]23)OCO4)cc(OC)c1O [Etoposide]" measure_name="normalized growth rate inhibition value" recorded_value=0.11
molecule="COc1cc2nccc(Oc3ccc(NC(=O)C4(C(=O)Nc5ccc(F)cc5)CC4)cc3)c2cc1OC [Cabozantinib]" measure_name="normalized growth rate inhibition value" recorded_value=0.954
molecule=CN(C)CC[C@H](CSc1ccccc1)Nc1ccc(S(=O)(=O)NC(=O)c2ccc(N3CCN(Cc4ccccc4-c4ccc(Cl)cc4)CC3)cc2)cc1[N+](=O)[O-] measure_name="normalized growth rate inhibition value" recorded_value=0.817

CC(C)[C@@H]1NC(=O)[C@H](C)OC(=O)[C@@H](C(C)C)NC(=O)[C@@H](C(C)C)OC(=O)[C@H](C(C)C)NC(=O)[C@H](C)OC(=O)[C@@H](C(C)C)NC(=O)[C@@H](C(C)C)OC(=O)[C@H](C(C)C)NC(=O)[C@H](C)OC(=O)[C@@H](C(C)C)NC(=O)[C@@H](C(C)C)OC1=O has a reported normalized growth rate inhibition value of 0.0438

normalized growth rate inhibition value reading for O=C(c1cc(Cc2n[nH]c(=O)c3ccccc23)ccc1F)N1CCN(C(=O)C2CC2)CC1 : 0.956

----------
Measured fractional viability, listed per entry for reference.
tested on: U2OS; experiment: fractional viability (live cells / total cells); higher = less cell death; details: 3.16 µM; 72 h

// solved cases for fractional viability follow
compound="CC(C)Oc1ccc(-c2ccccc2)cc1-n1c(CN2CCN(C(=O)COc3ccc(Cl)cc3)CC2)nc2ccccc2c1=O [Erastin 2]" measure_name="fractional viability" recorded_value=0.0768
compound="COCC[n+]1c2c(n(Cc3cnccn3)c1C)C(=O)c1ccccc1C2=O [YM155]" measure_name="fractional viability" recorded_value=0.00039
compound="CC[C@]1(O)C[C@@H]2CN(CCc3c([nH]c4ccccc34)[C@@](C(=O)OC)(c3cc4c(cc3OC)N(C)[C@H]3[C@@](O)(C(=O)OC)[C@H](OC(C)=O)[C@]5(CC)C=CCN6CC[C@]43[C@@H]65)C2)C1 [Vinblastine]" measure_name="fractional viability" recorded_value=0.416
compound="Cc1ccc(Nc2nccc(N(C)c3ccc4c(C)n(C)nc4c3)n2)cc1S(N)(=O)=O [Pazopanib]" measure_name="fractional viability" recorded_value=0.978
compound="Cc1cc2c(C(=O)NC[C@H](C)c3ccccc3)c(O)c(O)cc2c(O)c1-c1c(C)cc2c(C(=O)NC[C@H](C)c3ccccc3)c(O)c(O)cc2c1O [Sabutoclax]" measure_name="fractional viability" recorded_value=0.936

Moving on to the next compound.
// field: fractional viability; key: CC1(C)CCC(c2ccc(Cl)cc2)=C(CN2CCN(c3ccc(C(=O)NS(=O)(=O)c4ccc(N[C@H](CCN5CCOCC5)CSc5ccccc5)c(S(=O)(=O)C(F)(F)F)c4)cc3)CC2)C1 [Navitoclax] ; value = 0.972

----------
Entries annotated with measured normalized growth rate inhibition value
system: U2OS; assay: normalized growth rate inhibition value (GR) relative to untreated cells (GR value (dimensionless, 1 = untreated growth)); higher = less growth inhibition; conditions: 3.16456 µM; 72 h
Enter a number only.

A selection of reference data follows.
compound=Cc1cc(Nc2ncc(Cl)c(Nc3ccccc3S(=O)(=O)C(C)C)n2)c(OC(C)C)cc1C1CCNCC1 measure_name="normalized growth rate inhibition value" recorded_value=0.588
compound="Cc1c(N)nc([C@H](CC(N)=O)NC[C@H](N)C(N)=O)nc1C(=O)N[C@H](C(=O)N[C@H](C)[C@@H](O)[C@H](C)C(=O)N[C@H](C(=O)NCCc1nc(-c2nc(C(=O)NCCC[S+](C)C)cs2)cs1)[C@@H](C)O)[C@@H](OC1OC(CO)C(O)C(O)C1OC1OC(CO)C(O)C(OC(N)=O)C1O)c1cnc[nH]1 (some centres not stated)" measure_name="normalized growth rate inhibition value" recorded_value=0.195
compound="COc1cc([C@@H]2c3cc4c(cc3[C@@H](O[C@@H]3O[C@@H]5CO[C@@H](C)O[C@H]5[C@H](O)[C@H]3O)[C@H]3COC(=O)[C@H]23)OCO4)cc(OC)c1O [Etoposide]" measure_name="normalized growth rate inhibition value" recorded_value=-0.0127
compound=O=C(CCCCCCC(=O)Nc1ccccc1)NO measure_name="normalized growth rate inhibition value" recorded_value=-0.515
compound=CS(=O)(=O)N1CCN(Cc2cc3nc(-c4cccc5[nH]ncc45)nc(N4CCOCC4)c3s2)CC1 measure_name="normalized growth rate inhibition value" recorded_value=0.306

Reported U2OS normalized growth rate inhibition value for item Cc1cc(C(C)Nc2ccccc2)c2nc(N3CCOCC3)cc(=O)n2c1 (configuration not stated) was 1.08

Value sought: normalized growth rate inhibition value, system U2OS, item O=C(c1cc(Cc2n[nH]c(=O)c3ccccc23)ccc1F)N1CCN(C(=O)C2CC2)CC1 . Result: 0.85

----------
system: U2OS; experiment: fractional viability (live cells / total cells); higher = less cell death; conditions: 0.01 µM; 72 h
Recorded fractional viability values for a group of compounds are listed next.
Write the value as a bare number.

Worked set:
smiles_str=CN(C)/N=N/c1[nH]cnc1C(N)=O test_target=U2OS measure_name="fractional viability" recorded_value=0.975
smiles_str=COc1cc2c(Oc3ccc(NC(=O)C4(C(=O)Nc5ccc(F)cc5)CC4)cc3F)ccnc2cc1OCCCN1CCOCC1 test_target=U2OS measure_name="fractional viability" recorded_value=0.966
smiles_str=Cc1cc2c(C(=O)NC[C@H](C)c3ccccc3)c(O)c(O)cc2c(O)c1-c1c(C)cc2c(C(=O)NC[C@H](C)c3ccccc3)c(O)c(O)cc2c1O test_target=U2OS measure_name="fractional viability" recorded_value=0.979

For reference, reported fractional viability for CNc1ccc2oc(C[C@H]3O[C@@]4(CC[C@H]3C)O[C@H]([C@H](C)C(=O)c3ccc[nH]3)[C@H](C)C[C@H]4C)nc2c1C(=O)O stands at 0.982

CO[C@@H]1C[C@@H](C[C@H]2CC[C@H](C)[C@H]([C@@H](C)C(=O)O)O2)O[C@]2(O[C@](C)([C@H]3CC[C@@](C)([C@@H]4O[C@@H]([C@H]5O[C@@](O)(CO)[C@H](C)C[C@@H]5C)C[C@@H]4C)O3)C[C@H]2C)[C@@H]1C yielded fractional viability of 0.963

The recorded fractional viability for entry CC(C)C[C@H](NC(=O)[C@H](Cc1ccccc1)NC(=O)c1cnccn1)B(O)O equals 0.919

----------
test system: U2OS; experiment: normalized growth rate inhibition value (GR) relative to untreated cells (GR value (dimensionless, 1 = untreated growth)); higher = less growth inhibition; conditions: 0.0317369 µM; 72 h
Decision: normalized growth rate inhibition value >= 0.8 yields t, all other cases yield f.

Worked examples, 5 compounds total:
compound=CO[C@H]1C[C@@H]2CC[C@@H](C)[C@@](O)(O2)C(=O)C(=O)N2CCCC[C@H]2C(=O)O[C@H]([C@H](C)C[C@@H]2CC[C@@H](OCCO)[C@H](OC)C2)CC(=O)[C@H](C)/C=C(\C)[C@@H](O)[C@@H](OC)C(=O)[C@H](C)C[C@H](C)/C=C/C=C/C=C/1C test_target=U2OS group_label=f
compound=Cc1nc(-c2cn3c(n2)-c2ccc(-c4cnn(C(C)(C)C(N)=O)c4)cc2OCC3)n(C(C)C)n1 test_target=U2OS group_label=f
compound=CN(C)CC[C@H](CSc1ccccc1)Nc1ccc(S(=O)(=O)NC(=O)c2ccc(N3CCN(Cc4ccccc4-c4ccc(Cl)cc4)CC3)cc2)cc1[N+](=O)[O-] test_target=U2OS group_label=t
compound="O=C1NC(=O)[C@@H](c2cn3c4c(cccc24)CCC3)[C@@H]1c1c[nH]c2ccccc12 [Tivantinib]" test_target=U2OS group_label=t
compound=COc1cc2c(Oc3ccc4[nH]c(C)cc4c3F)ncnc2cc1OCCCN1CCCC1 test_target=U2OS group_label=t

Proceed to the following item.
[ask] Check if normalized growth rate inhibition value >= 0.8 (inclusive). Item: O=C(CCCCCCC(=O)Nc1ccccc1)NO
[reply] t

----------
system: U2OS; assay: fractional viability (live cells / total cells); higher = less cell death; conditions: 1 µM; 72 h
Entries annotated with measured fractional viability
Just the number, please, no unit after it.

Recorded results for 2 compounds are shown here.
compound=CC(C)Oc1ccc(-c2ccccc2)cc1-n1c(CN2CCN(C(=O)COc3ccc(Cl)cc3)CC2)nc2ccccc2c1=O recorded_value=0.233
compound=O=C(NCCCNc1nc(Nc2cccc(NC(=O)N3CCCC3)c2)ncc1I)c1cccs1 recorded_value=0.94

response.value for C=CCNc1ncnc2ccc(Br)cc12 (field: fractional viability) = 0.982

# fractional viability of COc1cc2nccc(Oc3ccc(NC(=O)Nc4cc(C)on4)c(Cl)c3)c2cc1OC = 0.977

// fractional viability value for CC[C@@H]1C(=O)N(C)c2cnc(Nc3ccc(C(=O)NC4CCN(C)CC4)cc3OC)nc2N1C1CCCC1 : 0.323
